All values here come from PubChem BioAssay (NCATS).

# protocol-text: qHTS Screen of the MIPE 4.0 Collection Against Ewings Sarcoma (TC71) (AID 1259253); note: nearly all actives have a fitted effect of over 40% in size; note: potency is the fitted concentration of half-maximal effect
# experimental-setup: TC71 Ewing sarcoma viability, CellTiter-Glo, 48 h; series mostly up to 45.8 µM
Results filed as inconclusive are left out. Activity calls are given as the source filed them. Calls come from the whole dose curve; as a rule, active = well fitted inhibition curve with a large enough effect; inconclusive = small, poorly fitted or top-dose-only effect; inactive = no such curve, though single readings can be large or run the other way.
readout-label: Potency

Worked cases, Potency given:
Task: // returns reported Potency for input COc1ccc(C(=O)CC(=O)c2ccc(C(C)(C)C)cc2)cc1
Result: 1.66 µM (active)

Task: Here is the next molecule: CC1(C)[C@H](C(=O)O)N2C(=O)C[C@H]2S1(=O)=O
Result: inactive

Task: Here is the next molecule: O=C(O)C1CCCN(CCC=C(c2ccccc2)c2ccccc2)C1 (configuration not stated)
Result: 9.35 µM (active)

Task: Here is the next molecule: CC(C)Cn1cnc2c(N)nc3ccccc3c21
Result: 18.7 µM (active)

Task: Here is the next molecule: Cc1c(-c2ccc(O)cc2)n(Cc2ccc(OCCN3CCCCCC3)cc2)c2ccc(O)cc12
Result: inactive

Answer for every listed entry: what is its Potency? The entries follow.
1. COc1ccc(-c2ccc3cc(C(=O)O)ccc3c2)cc1C12CC3CC(CC(C3)C1)C2
2. CC(C)OC(=O)OCOP(=O)(CO[C@H](C)Cn1cnc2c(N)ncnc21)OCOC(=O)OC(C)C

Result:
2.96 µM (active)
18.7 µM (active)

====

# protocol-text: Quantitative High-Throughput drug screen in 47 multiple myeloma cell lines against the NCATS MIPE library collection: OCIMY1_PLB cell viability assay (AID 1918979); note: nearly all actives have a fitted effect of over 35% in size
# experimental-setup: OCI-MY1 myeloma viability, CellTiter-Glo ATP, 48 h; series mostly up to 45.8 µM
Inconclusive results are not listed. Activity calls are given as the source filed them. The call rests on the fitted dose curve; in most records, active means well fitted cell-killing curve with a large enough effect; inconclusive means small, poorly fitted or top-dose-only effect, or effect the other way; inactive means no such curve, though single readings can be large or run the other way.
I would appreciate it if you answered using one of these outcomes: active, inactive

Task: Any idea what this test logged for Nc1[nH]c(=O)ncc1F ?
Result: inactive

Task: Here is the next compound: NC(=O)c1cccnc1
Result: inactive

Task: Here is the next compound: CC1=NN(c2ccccc2)C(=O)C1
Result: inactive

Further cases:
Task: Any idea what this test logged for COc1cccc(N(C)C(=S)Oc2ccc3c(c2)CCCC3)n1 ?
Result: inactive

Task: Here is the next compound: NCCCC(O)(P(=O)(O)O)P(=O)(O)O
Result: inactive

====

# protocol-text: qHTS of pediatric cancer cell lines to identify multiple opportunities for drug repurposing: Confirmatory screen for SK-N-MC cells (AID 1347111);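 note: cells exposed to compound for 48 h before the readout; nearly all actives have a fitted effect of over 70% in size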
# experimental-setup: SK-N-MC cell viability; series mostly up to 45.9 µM
Inconclusive results are not listed. Calls of active or inactive are those of the source. Calls come from the whole dose curve; as a rule, active = well fitted cell-killing curve with a large enough effect; inconclusive = small, poorly fitted or top-dose-only effect; inactive = no such curve, though single readings can be large or run the other way.
I would appreciate it if you answered using one of these outcomes: y for active, n for inactive

Observe how each entry below is paired with its result.
Task: Any idea what this test logged for NC(=O)c1cccnc1 ?
Result: y

Task: Here is the next compound: O=C(NCC1CN(c2ccc(N3CCOCC3=O)cc2)C(=O)O1)c1ccc(Cl)s1 (configuration not stated)
Result: y

Task: Here is the next compound: O=NN(CCCl)C(=O)NC1CCCCC1
Result: n

Further cases:
Task: Any idea what this test logged for Nc1nc(N)nc(-c2cc(Cl)ccc2Cl)n1 ?
Result: y

Task: Here is the next compound: CCc1c2c(nc3ccc(OC(=O)N4CCC(N5CCCCC5)CC4)cc13)-c1cc3c(c(=O)n1C2)COC(=O)[C@]3(O)CC
Result: y

Task: Here is the next compound: CC(C)(C#N)c1cc(Cn2cncn2)cc(C(C)(C)C#N)c1
Result: n

Task: Here is the next compound: CCC(=O)O[C@]1(C(=O)SCF)[C@H](C)C[C@H]2[C@@H]3C[C@H](F)C4=CC(=O)C=C[C@]4(C)[C@@]3(F)[C@@H](O)C[C@@]21C
Result: n
